- SYSTEM: Nuclear receptor ROR-gamma (Homo sapiens)
- Sequence (P51449 whole entry, the tested form may be a part): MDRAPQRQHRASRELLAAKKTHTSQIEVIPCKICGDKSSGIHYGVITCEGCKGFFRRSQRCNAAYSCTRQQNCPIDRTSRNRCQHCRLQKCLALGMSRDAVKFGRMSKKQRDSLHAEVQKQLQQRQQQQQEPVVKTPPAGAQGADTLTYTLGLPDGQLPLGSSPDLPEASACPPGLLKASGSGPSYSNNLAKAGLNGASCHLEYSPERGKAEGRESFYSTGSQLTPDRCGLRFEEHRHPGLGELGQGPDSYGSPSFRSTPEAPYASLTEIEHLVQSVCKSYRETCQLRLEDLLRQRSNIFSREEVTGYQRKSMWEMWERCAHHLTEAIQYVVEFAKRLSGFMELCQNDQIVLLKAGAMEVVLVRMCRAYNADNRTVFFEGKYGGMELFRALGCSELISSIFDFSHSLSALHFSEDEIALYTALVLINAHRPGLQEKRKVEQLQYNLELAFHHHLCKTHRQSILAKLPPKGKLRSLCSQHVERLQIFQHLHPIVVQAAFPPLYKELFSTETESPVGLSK
- PROTOCOL_NOTES: Inverse agonist activity at APC-labeled biotinylated RORgammat LBD (unknown origin) assessed as inhibition of N-(2-chloro-6-fluorobenzyl)-N-((20-methoxy-[1,10-biphenyl]-4-yl)methyl)benzenesulfonamide-induced co-activator europium-labeled biotinylated SRC1 peptide recruitment after 1 hr by LANCE-FRET assay
- CONDITION_LABEL: read-out: IC50
MEASURED_PROPERTY: IC50

IC50 lookup needed for O=C(CC1CCOCC1)Nc1cccc2c1CCC2N1CC2CCC(C1)N2C(=O)C1CCCC1 (stereo unspecified) , thanks. > 10 µM

Cited source for all entries: ChEMBL document CHEMBL4339183
